Values from patent US12258328B2

- Target entity: EGFR del19/C797S (Homo sapiens, UniProt P00533, C797S/DEL746-750)
- Sequence (P00533 with tags, fused parts or gaps DEL746-750/C797S): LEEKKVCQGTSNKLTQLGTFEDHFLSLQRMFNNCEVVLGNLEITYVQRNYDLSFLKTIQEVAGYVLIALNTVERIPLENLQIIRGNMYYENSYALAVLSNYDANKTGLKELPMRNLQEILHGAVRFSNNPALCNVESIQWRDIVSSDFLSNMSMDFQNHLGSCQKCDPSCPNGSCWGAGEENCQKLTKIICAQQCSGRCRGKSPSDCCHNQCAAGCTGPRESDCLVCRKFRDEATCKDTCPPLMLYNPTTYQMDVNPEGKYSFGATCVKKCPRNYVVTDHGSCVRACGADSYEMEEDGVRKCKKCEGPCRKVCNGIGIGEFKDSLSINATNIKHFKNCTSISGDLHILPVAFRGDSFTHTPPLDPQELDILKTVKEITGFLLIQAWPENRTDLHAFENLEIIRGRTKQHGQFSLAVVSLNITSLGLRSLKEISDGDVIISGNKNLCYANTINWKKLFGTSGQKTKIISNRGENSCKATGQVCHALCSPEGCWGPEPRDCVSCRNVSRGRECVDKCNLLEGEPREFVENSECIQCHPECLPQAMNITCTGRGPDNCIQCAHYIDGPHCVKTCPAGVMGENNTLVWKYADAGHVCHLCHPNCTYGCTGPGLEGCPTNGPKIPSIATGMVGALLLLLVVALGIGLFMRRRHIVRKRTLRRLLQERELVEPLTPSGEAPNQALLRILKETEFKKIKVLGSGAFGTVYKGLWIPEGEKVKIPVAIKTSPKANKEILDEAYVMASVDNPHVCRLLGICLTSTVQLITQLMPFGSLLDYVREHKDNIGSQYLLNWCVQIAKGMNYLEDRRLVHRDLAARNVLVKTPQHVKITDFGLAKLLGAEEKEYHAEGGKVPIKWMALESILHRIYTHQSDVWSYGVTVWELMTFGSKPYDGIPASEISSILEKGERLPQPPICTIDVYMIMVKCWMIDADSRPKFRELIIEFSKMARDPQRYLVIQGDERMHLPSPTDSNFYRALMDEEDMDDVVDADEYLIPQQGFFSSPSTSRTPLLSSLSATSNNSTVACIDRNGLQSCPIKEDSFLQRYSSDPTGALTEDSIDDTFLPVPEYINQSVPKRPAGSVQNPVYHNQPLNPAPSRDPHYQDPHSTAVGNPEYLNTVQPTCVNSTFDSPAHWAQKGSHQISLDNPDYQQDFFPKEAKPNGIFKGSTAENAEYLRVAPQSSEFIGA
- Procedure text: Biochemical EGFR kinase assay (Lance Ultra TR-FRET), double mutant del19/C797S
- Assay setup: IC50 del19/C797S (nM) 100 μM ATP, 100 μM ATP
Property measured: log10 of IC50 (log10 of the value in nM)
Could you please treat all values as log10 of IC50 in nM?

Reported log10 of IC50, molecule C[C@]1(O)CC[C@@H](Nc2cc(Nc3ccnc(-c4cnn(S(=O)(=O)C5CC5)c4)n3)ncc2-c2ccc(N3CCCC3)cn2)CC1 : ____
0.92

// lookup log10 of IC50 for O=S(=O)(C1CC1)n1cc(-c2nccc(Nc3cc(N[C@H]4CC[C@H](CCO)CC4)c(-c4cc(C(F)F)ccn4)cn3)n2)cn1
2.35

Could you tell me which log10 of IC50 is on file for O=S(=O)(C1CC1)n1cc(-c2nccc(Nc3cc(N[C@H]4CC[C@@H](CCO)CC4)c(-c4ccc(C(F)F)cn4)cn3)n2)cn1 ?
1.12

Given CN1CCN(Cc2cccc(-c3cnc(Nc4ccnc(-c5cnn(S(=O)(=O)C6CC6)c5)n4)cc3N[C@H]3CC[C@@](C)(O)CC3)n2)CC1 , state its recorded log10 of IC50.
-0.22

Request the reported log10 of IC50 associated with CN1CCN(Cc2ccc(-c3cnc(Nc4ccnc(-c5cnn(S(=O)(=O)C6CC6)c5)n4)cc3N[C@H]3CC[C@@](C)(O)CC3)nc2)CC1
-0.15

More entries:
Consider the molecule CN(C)CCOc1cnc(-c2cnc(Nc3ccnc(-c4cnn(S(=O)(=O)C5CC5)c4)n3)cc2NC2CCC(C)(O)CC2)cn1 (stereo not drawn) and give its measured log10 of IC50.
-0.10

====

- Target entity: EGFR L858R/T790M/C797S (Homo sapiens, UniProt P00533, C797S/L858R/T790M)
- Sequence (P00533 25-1210 T790M/C797S/L858R): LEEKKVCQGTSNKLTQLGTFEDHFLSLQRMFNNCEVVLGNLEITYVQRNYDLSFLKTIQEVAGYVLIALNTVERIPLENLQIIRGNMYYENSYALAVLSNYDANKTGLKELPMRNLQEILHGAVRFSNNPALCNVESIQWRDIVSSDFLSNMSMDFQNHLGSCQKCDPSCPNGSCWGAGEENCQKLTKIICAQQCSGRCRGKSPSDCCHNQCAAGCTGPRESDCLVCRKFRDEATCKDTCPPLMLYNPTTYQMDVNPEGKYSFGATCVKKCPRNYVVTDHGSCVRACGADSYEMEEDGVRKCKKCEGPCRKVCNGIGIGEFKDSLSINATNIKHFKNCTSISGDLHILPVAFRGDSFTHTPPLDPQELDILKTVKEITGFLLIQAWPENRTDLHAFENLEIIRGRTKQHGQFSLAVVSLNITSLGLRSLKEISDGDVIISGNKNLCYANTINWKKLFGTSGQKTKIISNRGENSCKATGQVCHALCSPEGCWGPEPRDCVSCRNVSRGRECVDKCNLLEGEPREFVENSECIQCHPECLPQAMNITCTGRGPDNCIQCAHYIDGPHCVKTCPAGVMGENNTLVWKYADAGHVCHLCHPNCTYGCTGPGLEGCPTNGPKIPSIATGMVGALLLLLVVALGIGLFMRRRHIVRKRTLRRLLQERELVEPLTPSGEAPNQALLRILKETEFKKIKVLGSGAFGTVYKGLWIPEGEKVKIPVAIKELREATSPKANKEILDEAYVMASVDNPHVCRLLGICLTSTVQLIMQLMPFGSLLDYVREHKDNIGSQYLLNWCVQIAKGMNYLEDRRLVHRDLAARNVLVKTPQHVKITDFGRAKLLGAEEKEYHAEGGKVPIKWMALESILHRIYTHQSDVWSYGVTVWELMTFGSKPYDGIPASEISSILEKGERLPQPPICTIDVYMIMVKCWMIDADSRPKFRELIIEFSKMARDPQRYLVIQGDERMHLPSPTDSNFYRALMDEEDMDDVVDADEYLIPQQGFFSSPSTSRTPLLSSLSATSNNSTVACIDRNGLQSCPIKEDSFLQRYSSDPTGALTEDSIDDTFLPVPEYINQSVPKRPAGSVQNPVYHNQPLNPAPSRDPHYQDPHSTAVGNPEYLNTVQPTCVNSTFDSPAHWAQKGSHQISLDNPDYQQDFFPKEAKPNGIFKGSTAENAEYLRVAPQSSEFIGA
- Procedure text: Biochemical EGFR kinase assay (Lance Ultra TR-FRET), triple mutant L858R/T790M/C797S
- Assay setup: Km ATP; read-out: IC50 L858R/T790M/C797S (nM) Km ATP
Entries and their IC50
Give the value, in units of nM, as a plain number.

Examples with answers:
Which IC50 value is on record for C[C@]1(O)CC[C@@H](Nc2cc(Nc3ccnc(-c4cnn(S(=O)(=O)C5CC5)c4)n3)ncc2-c2cc(N3CCC(F)(F)CC3)ccn2)CC1 [Example 102] ?
0.7

Which IC50 value is on record for Cc1cnc(-c2cnc(Nc3ccnc(-c4cnn(S(=O)(=O)C5CC5)c4)n3)cc2N[C@H]2CC[C@@](C)(O)CC2)cn1 [Example 59] ?
0.5

So what does the record say about IC50 for C[C@]1(O)CC[C@@H](Nc2cc(Nc3ccnc(-c4cnn(S(=O)(=O)C5CC5)c4)n3)ncc2-c2cc(OC(F)F)ccn2)CC1 [Example 331] ?
0.7

IC50 for CN(C)C[C@H]1CC[C@@H](Nc2cc(Nc3ccnc(-c4cnn(S(=O)(=O)C5CC5)c4)n3)ncc2-c2cnc(N3CCC(F)(F)CC3)cn2)CC1 [Example 74] ?
0.6

Given the entry CC(C)(O)c1cnc(-c2cnc(Nc3ccnc(-c4cnn(S(=O)(=O)C5CC5)c4)n3)cc2N[C@H]2CC[C@@H](C(C)(C)O)CC2)cn1 [Example 120] , report its measured IC50.
0.1

Could you tell me which IC50 is on file for C[C@]1(O)CC[C@@H](Nc2cc(Nc3ccnc(-c4cnn(S(=O)(=O)C5CC5)c4)n3)ncc2-c2cnc(OC3COC3)cn2)CC1 [Example 150] ?
0.1

---
Bench note: what IC50 did CN1CCN(Cc2ccc(-c3cnc(Nc4ccnc(-c5cnn(S(=O)(=O)C6CC6)c5)n4)cc3N3CCC(C)(CO)CC3)nc2)CC1 [Example 1] show?
0.4

Quick check: IC50 of CN1CCC(Oc2ccc(-c3cnc(Nc4ccnc(-c5cnn(S(=O)(=O)C6CC6)c5)n4)cc3NC3CC(F)(F)C3)nc2)CC1 [Example 140] ?
0.2

Given the entry CC(C)Nc1cc(Nc2ccnc(-c3cnn(S(=O)(=O)C4CC4)c3)n2)ncc1-c1ccc(N2CCOCC2)cn1 [Example 124] , report its measured IC50.
0.4

Request the reported IC50 associated with CN1CCN(Cc2ccc(-c3cnc(Nc4ccnc(-c5cnn(S(=O)(=O)C6CC6)c5)n4)cc3N[C@H]3CC[C@](O)(CO)CC3)nc2)CC1 [Example 11]
0.1

# query: IC50 of entry CN(C)Cc1ccc(-c2cnc(Nc3ccnc(-c4cnn(S(=O)(=O)C5CC5)c4)n3)cc2N[C@H]2CC[C@@](C)(O)CC2)nc1 [Example 31]
0.1

Reported IC50, compound CC(C)(O)c1ccc(-c2cnc(Nc3ccnc(-c4cnn(S(=O)(=O)C5CC5)c4)n3)cc2N[C@H]2CC[C@@](C)(O)CC2)nn1 [Example 86] : ____
0.1

Which IC50 is listed for Cc1ccc(-c2cnc(Nc3ccnc(-c4cnn(S(=O)(=O)C5CC5)c4)n3)cc2N[C@H]2CC[C@@](C)(O)CC2)nc1 [Example 8] ?
0.1

// lookup IC50 for C[C@]1(O)CC[C@@H](Nc2cc(Nc3ccnc(-c4cnn(S(=O)(=O)C5CC5)c4)n3)ncc2-c2cccc(CO)n2)CC1 [Example 27]
0.2

What does the record list as IC50 for CC(C)(O)c1ccnc(-c2cnc(Nc3ccnc(-c4cnn(S(=O)(=O)C5CC5)c4)n3)cc2N[C@H]2CC[C@@H](CO)CC2)c1 [Example 111] ?
0.2

Recorded IC50 for CC(C)(O)[C@H]1CC[C@@H](Nc2cc(Nc3ccnc(-c4cnn(S(=O)(=O)C5CC5)c4)n3)ncc2-c2cnc(N3CCC(F)(F)CC3)cn2)CC1 [Example 72] , please?
1.7

IC50 for CC(C)(O)c1cnc(-c2cnc(Nc3ccnc(-c4cnn(S(=O)(=O)C5CC5)c4)n3)cc2N[C@H]2CC[C@@H](CO)CC2)cn1 [Example 119] ?
0.1

Request the reported IC50 associated with CN(C)C[C@H]1CC[C@@H](Nc2cc(Nc3ccnc(-c4cnn(S(=O)(=O)C5CC5)c4)n3)ncc2-c2cc(N3CCC(F)(F)CC3)ccn2)CC1 [Example 101]
0.4

Can you share its IC50? I mean this compound: COc1ccc(-c2cnc(Nc3ccnc(-c4cnn(S(=O)(=O)C5CC5)c4)n3)cc2N[C@H]2CC[C@@](C)(O)CC2)nn1 [Example 53]
0.1

Record request: IC50 value, item COC1CN(c2ccc(-c3cnc(Nc4ccnc(-c5cnn(S(=O)(=O)C6CC6)c5)n4)cc3N[C@H]3CC[C@@H](CN(C)C)CC3)nc2)C1 [Example 93]
0.1

IC50 lookup needed for C[C@]1(O)CC[C@@H](Nc2cc(Nc3ccnc(-c4cnn(S(=O)(=O)C5CC5)c4)n3)ncc2-c2ccc(OC(F)F)cn2)CC1 [Example 332] , thanks.
0.7

IC50 lookup needed for CC(C)(O)c1cc(-c2cnc(Nc3ccnc(-c4cnn(S(=O)(=O)C5CC5)c4)n3)cc2N[C@H]2CC[C@@H](C(C)(C)O)CC2)ncc1F [Example 106] , thanks.
2.6

Look at this compound and give its reported IC50. COC1CN(c2ccc(-c3cnc(Nc4ccnc(-c5cnn(S(=O)(=O)C6CC6)c5)n4)cc3N[C@H]3CC[C@@H](CO)CC3)nc2)C1 [Example 91]
0.9

Fill in: IC50 of O=S(=O)(C1CC1)n1cc(-c2nccc(Nc3cc(N[C@H]4CC[C@@H](CCO)CC4)c(-c4cc(C(F)F)ccn4)cn3)n2)cn1 [Example 97] is ___
0.5

Return reported IC50; argument: O=S(=O)(C1CC1)n1cc(-c2nccc(Nc3cc(N[C@H]4CC[C@@H](CO)CC4)c(-c4ccc(CO)cn4)cn3)n2)cn1 [Example 22]
0.2

====

- Target entity: EGFR del19/C797S (Homo sapiens, UniProt P00533, C797S/DEL746-750)
- Procedure text: Biochemical EGFR kinase assay (Lance Ultra TR-FRET), double mutant del19/C797S
- Assay setup: ATP at Km; read-out: IC50 del19/C797S, Km ATP
pIC50 by entry:
On this scale, pIC50 is minus log10 of a concentration expressed in M (mol/L).

# lookup: pIC50 of O=S(=O)(C1CC1)n1cc(-c2nccc(Nc3cc(NC4CCC(F)(F)CC4)c(-c4ccc(N5CCC(F)(F)CC5)nn4)cn3)n2)cn1
6.12

I am curious: what pIC50 value has been reported for CN1CCC(F)(COc2cnc(-c3cnc(Nc4ccnc(-c5cnn(S(=O)(=O)C6CC6)c5)n4)cc3N[C@H]3CC[C@@](C)(O)CC3)cn2)CC1 ?
9.52

Further cases:
Give the measured pIC50 of CN(C)CC1CCC(Nc2cc(Nc3ccnc(-c4cnn(S(=O)(=O)C5CC5)c4)n3)ncc2-c2ccc(C(C)(O)C(F)(F)F)cn2)CC1 (stereo not drawn) .
9.70
